The measurements presented in this section are drawn from patent US7858653B2.

- System name: mouse TAAR1 (Mus musculus, UniProt Q923Y8)
- Sequence (Q923Y8 whole entry): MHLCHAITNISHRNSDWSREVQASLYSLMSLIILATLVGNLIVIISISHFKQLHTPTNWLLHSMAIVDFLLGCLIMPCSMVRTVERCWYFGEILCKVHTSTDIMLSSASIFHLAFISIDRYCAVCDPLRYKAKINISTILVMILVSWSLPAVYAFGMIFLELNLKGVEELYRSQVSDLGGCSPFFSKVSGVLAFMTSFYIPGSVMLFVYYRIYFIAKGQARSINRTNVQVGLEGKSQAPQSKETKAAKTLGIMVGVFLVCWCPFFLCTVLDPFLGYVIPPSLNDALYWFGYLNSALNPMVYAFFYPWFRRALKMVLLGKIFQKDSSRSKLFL
Result type: pKd
Give bare numbers, as −log10 of the molar value.

Which pKd value belongs to c1ccc2c(c1)CCCC2C1=NCCN1 (racemic) [reference compound] ?
7.22

###

- System name: mouse TAAR1 (Mus musculus)
- Construct: expressed in transfected cells; host or cells: HEK293 cells (ATCC # CRL-1573), stably transfected with pIRESneo2 expression plasmid; membranes prepared
- Test summary: Radioligand binding assay on membranes of HEK293 cells stably expressing TAAR1
- Experimental setup: mouse TAAR1; radioligand [3H]-rac-2-(1,2,3,4-tetrahydro-1-naphthyl)-2-imidazoline at 60 nM; 4° C., 30 minutes
Grouping by measured Ki is done with the following cut points: zone 1 (below 0.2 µM), zone 2 (0.2 µM to below 0.8 µM), zone 3 (0.8 µM or more)

// below: answered compounds
| Compound | Group label |
| --- | --- |
| Clc1cccc(CNc2ncc[nH]2)c1Cl | zone 1 |
| Clc1ccc(CNc2ncc[nH]2)cc1Cl | zone 2 |
| CC(Nc1ncc[nH]1)c1ccccc1Cl (racemic) | zone 2 |
| Clc1cccc(SCc2ncc[nH]2)c1Cl | zone 1 |

Turning to the following compound.
Would you mind sorting Clc1cccc(CNc2ncc[nH]2)c1 into the appropriate category?
zone 3
